assay.overview: Solubility in Labrasol and TPGS/PG formulations
Type: physicochemical
study.conditions: organic solvent or mixture; 25% by weight TPGS, 75% by weight PG; read-out: Solubility TPGS/PG
Classification field: class 1 = solubility at or over 2000 µg/mL; class 0 = solubility under 2000 µg/mL.

For orientation, consider the following solved cases.
CCCCCCCCOC(=O)Oc1cc(/C=C(\C#N)C(=O)N(CC)CC)cc([N+](=O)[O-])c1O	class 1
CCCC(C)OC(=O)Oc1cc(/C=C(\C#N)C(=O)N(CC)CC)cc([N+](=O)[O-])c1O (centres unmarked)	class 0
CCC(CC)OC(=O)Oc1cc(/C=C(\C#N)C(=O)N(CC)CC)cc([N+](=O)[O-])c1O	class 1
CCN(CC)C(=O)/C(C#N)=C/c1cc(OC(=O)OCC2CCCCC2)c(O)c([N+](=O)[O-])c1	class 1

Now let's try a different one.
Decide: is the reported value of solubility for CCCCC(CC)COC(=O)Oc1cc(/C=C(\C#N)C(=O)N(CC)CC)cc([N+](=O)[O-])c1O (centres unmarked) equal to or greater than 2000 µg/mL? class 1

---

assay.overview: Solubility in 0.1 N HCl, PBS buffer, FaSSIF and FeSSIF
Assay type: physicochemical
study.conditions: 0.1 N HCl, pH 1, simulated gastric fluid, thermodynamic from solid, ambient temperature, shaken 10 min; read-out: Solubility 0.1N HCl Ph 1.0
Recorded solubility at 10 min values for a group of compounds are listed next.
The response must be a number in µg/mL with no trailing unit.

Solved cases below.
C#CCCOC(=O)Oc1cc(/C=C(\C#N)C(=O)N(CC)CC)cc([N+](=O)[O-])c1O	10
CCN(CC)C(=O)/C(C#N)=C/c1cc(OC(=O)OCC(C)C)c(O)c([N+](=O)[O-])c1	20

Consider the compound CCC(CC)OC(=O)Oc1cc(/C=C(\C#N)C(=O)N(CC)CC)cc([N+](=O)[O-])c1O and give its measured solubility at 10 min. 30

Subsequent entry: CCN(CC)C(=O)/C(C#N)=C/c1cc(OC(=O)OC(C)C)c(O)c([N+](=O)[O-])c1 3

Subsequent entry: CCCC(C)OC(=O)Oc1cc(/C=C(\C#N)C(=O)N(CC)CC)cc([N+](=O)[O-])c1O (stereo not drawn) 20

---

assay.overview: Solubility in 0.1 N HCl, PBS buffer, FaSSIF and FeSSIF
Format: physicochemical
study.conditions: FaSSIF, pH 6.5, fassif, thermodynamic from solid, fasting state fluid, ambient temperature; read-out: Solubility FaSSIF Ph 6.5
measured.parameter: solubility at 10 min
Form field: result (number plus unit)

CCCC(C)OC(=O)Oc1cc(/C=C(\C#N)C(=O)N(CC)CC)cc([N+](=O)[O-])c1O (stereo not drawn)	750 µg/mL
CCN(CC)C(=O)/C(C#N)=C/c1cc(O)c(O)c([N+](=O)[O-])c1	150 µg/mL

Now look at this one.
Consider the compound C#CCCOC(=O)Oc1cc(/C=C(\C#N)C(=O)N(CC)CC)cc([N+](=O)[O-])c1O and give its measured solubility at 10 min. 910 µg/mL

---

assay.overview: Solubility in 0.1 N HCl, PBS buffer, FaSSIF and FeSSIF
Type: physicochemical
study.conditions: PBS buffer, pH 7.4, aqueous buffer, thermodynamic from solid, ambient temperature; read-out: Solubility PBS Ph 7.4
Experimental: For testing solubility, saturated solutions of selected compounds of formula I are prepared in four different systems and compared to the solubility of entacapone. […] The solubility testing is carried out by the following method: An excess amount of each compound is added to a 0.1 N HCl, PBS buffer, FeSSIF and FaSSIF. […] After centrifugation the concentration is determined by HPLC. […]
// classify(record): look up solubility at 10 min in ranges 1: < 300 µg/mL; 2: ≥ 300 µg/mL and < 1000 µg/mL; 3: ≥ 1000 µg/mL

Lab note: sort CCCCC(CC)COC(=O)Oc1cc(/C=C(\C#N)C(=O)N(CC)CC)cc([N+](=O)[O-])c1O (stereo not drawn) into the matching solubility at 10 min band. 1

Subsequent entry: CCOC(=O)Oc1cc(/C=C(\C#N)C(=O)N(CC)CC)cc([N+](=O)[O-])c1O 2

Subsequent entry: CCN(CC)C(=O)/C(C#N)=C/c1cc(OC(=O)OCC(C)C)c(O)c([N+](=O)[O-])c1 2

Subsequent entry: CCN(CC)C(=O)/C(C#N)=C/c1cc(OC(=O)OCCc2cccs2)c(O)c([N+](=O)[O-])c1 2

Subsequent entry: CCN(CC)C(=O)/C(C#N)=C/c1cc(OC(=O)OC(C)C)c(O)c([N+](=O)[O-])c1 2

Subsequent entry: CCN(CC)C(=O)/C(C#N)=C/c1cc(O)c(O)c([N+](=O)[O-])c1 3

Subsequent entry: CCN(CC)C(=O)/C(C#N)=C/c1cc(OC(=O)OC(C)c2ccccc2)c(O)c([N+](=O)[O-])c1 (stereo not drawn) 2

Subsequent entry: C#CCCOC(=O)Oc1cc(/C=C(\C#N)C(=O)N(CC)CC)cc([N+](=O)[O-])c1O 2

Subsequent entry: CCN(CC)C(=O)/C(C#N)=C/c1cc(OC(=O)OC2CCCCC2)c(O)c([N+](=O)[O-])c1 2

Subsequent entry: CCC(CC)OC(=O)Oc1cc(/C=C(\C#N)C(=O)N(CC)CC)cc([N+](=O)[O-])c1O 3

Subsequent entry: CCCC(C)OC(=O)Oc1cc(/C=C(\C#N)C(=O)N(CC)CC)cc([N+](=O)[O-])c1O (stereo not drawn) 3

Subsequent entry: CCN(CC)C(=O)/C(C#N)=C/c1cc(OC(=O)OCc2ccccc2)c(O)c([N+](=O)[O-])c1 1

Subsequent entry: CCN(CC)C(=O)/C(C#N)=C/c1cc(OC(=O)OCC2CCCCC2)c(O)c([N+](=O)[O-])c1 1

Subsequent entry: CCCCCCCCOC(=O)Oc1cc(/C=C(\C#N)C(=O)N(CC)CC)cc([N+](=O)[O-])c1O 1
